Where these numbers come from: patent US20250027068

Parameter: Enzyme Activity Endpoint Assay: Fab′2. Scope: all listed entries.
# study-system: pooled human IgG (human IgG1,2,3 and 4)
measured-attribute: Enzyme Activity Endpoint Assay: Fab′2 (ng/µL)

{"columns": ["protein", "observed-value"],
 "data": [
  ["PRT-460 (protein) MVTSVWTKGVTPPTDFIKGEDVFHAPYKAGQGWYDITKTFNGKDDLLCGAATAGNMLHWWFDQNKDQIERYLKEHPEKQKINFNGEQMFDVKEAIDTKDSQTDSKLFEYFKEKAFPYLSTKHLGVFPDHVLDMFINGYRLSLTNHGPTPVKEGSKDPRGGIFDAVFTRGDQSKLLTSRHDLKNKTLKEISDLIKQELTEGKALGLSHTYANVRINHVINLWGADFDSEGNLKAIYVTDSDSNASIGMKKYFVGVNSAGKVAISAKEIKEDNIGAQVLGLFTLSTGQDIWNQTNLEHHHHHH", 49],
  ["PRT-478 (protein) MITSVWTKGVTPPTDFIYGEDVLHAPYKAGQGWYDITKAFDGGDDLLCGAATAGNMLHWWFDQNKEQIENYLKKHPEKQKINFNGEQMFDVKEAIDTKDSQTNSELFNYFKEKAFPYLSTKHLGVFPDHVIDMFINGYRLSLTNHGPTPVKRQEKDPRGGIFDAVFGRGDQTKLLTNRHDFKEKTLNEISQLIKQELTEGKALGISHTYANVRINHVINLWGADFDAEGNLEAIYVTDSDSNASIGMKKYFVGVNSNGKVAISAKEIEEDNIGAQVLGLFTLSTGQKIWNKTNLEHHHHHH", 509],
  ["PRT-435 (protein) MSQTEDSESLQRLRDIEDFQAEKEKQNVVYTKWLDGVDVKDHDFRKIVDGNIAYYATPLLNGRGFYDINKDFNRDSDKCAAAVAANMFHYWLDRNRDNVDRFLRQNPEKHGIIELPDGQLKLSDFLNTYESDDGYRDKSKLFDFISNNFNGPVWTDKLLDNYINGYAYNYKYGRTIEDPTKNTSKINFFKEVFNEKILTNNHSIRNQNEFSVLLSEALYTGKAIGLSYGPAGLRHSLGHIISVWGADLDADGNVVAIYVTDSDDKKLTIGDERVGLKRYKISTDDEGRLRLTAYEETHNTGGQIRGLWTLDTGKQAWADYFDKTEQTGTDQAEQ", 35],
  ["PRT-267 (protein) MVTSVWTKGVTPPTDFIYGEDVLHAPYKAGQGWYDITKTFNGKDDLLCGAATAGNMLHWWFDQNKEQIENYLKKHPEKQKINFNGEQMFDVKEAIDTKDSQLDSKLFDYFKEKAFPNLSTKHLGVFPDHVIDMFINGYRLSLLNHGPTPVKRGSKDPRGGIFDAVFTRGDQSKLLTNRHDLKNKTLKEISDLIKQELTEGKALGISHTYANVRINHVINLWGADFDAEGNLEAIYVTDSDSNPSIGMKKYFVGVNSSGKVAISAKEIEEDNIGAQVLGLFTLSTGQDIWNQTN", 1090],
  ["PRT-308 (protein) MQITSVWTKGVTPLTPEQFRENNEDVIHAPYLAHQGWYDITKAFDGKDNLLCGAATAGNMLHWWFDQNKTEIEAYLSKHPEKQKIIFNNQELFDLKAAIDTKDSQTNSQLFNYFRDKAFPNLSARQLGVMPDLVLDMFINGYYLNVGKTQSTDVNRPYQDKDKRGGIFDAVFTRGDQTTLLTARHDLKNKGLNDISTIIKQELTEGRALALSHTYANVSISHVINLWGADFDAEGNLEAIYVTDSDANASIGMKKYFVGRNAHGHVAISAKKIEGENIGAQVLGLFTLSLGKDIWQKLS", 405],
  ["PRT-251 (protein) MVTSVWTKGVTPPTNFTYGEDVLHAPYVANQGWYDITKTFNGKDDLLCGAATAGNMLHWWFDQNKEQIENYLKKHPEKQKINFNGEQMFDVKEAIDTKDSQLDSKLFEYFLEKAFPNLSTKHLGVFPDHVIDMFINGYRLSLLNHGPTPVKRGSKDPRGGIFDAVFTRGDQSKLLTNRHDFKEKTLKEISDLIKQELTEGKALGISHTYANVRINHVINLWGADFDAEGNLEAIAVTDSDSNASIGMKKYFVGVNSSGKVAISAKEIEEDNIGAQVLGLFTLSTGQDIWNQTN", 1070],
  ["PRT-299 (protein) MVTSVWTKGVTPPTDFIKGEDVFHAPYKAGQGWYDITKTFNGKDDLLCGAATAGNMLHWWFDQNKEYIEAYLKKHPEKQKIMFGDQELLDVRKAINTKGSQKNSELFNYFRDKAFPNLSARRLGVMPDLVLDMFINGYYLNVTKTQTTDVNRTYQEKDKRGGIFDAVFTRGDQSKLLTSRHDFKEKGLKEISDLIKQELTEGKALGLSHTYANVRIGHVINLWGADFDSDGNLKAIYVTDSDSNASIGMKKYFVGVNSSGKVAISAKEIKEDNIGAQVLGLFTLSTGQDIWNQTN", 549],
  ["PRT-95 (protein) MANQEIRYSEVTPYHITSVWTKGVTPPAKFTQGEDVFHAPYVANQGWYDITKTFNGKDDLLCGAATAGNMLHWWFDQNKEKIEAYLKKHPDKQKIMFGDQELLDVRKVINTKGDQTNSELFNYFRDKAFPNLSARRIGVMPDLVLDMFINGYYLNVGKTQTTDVNRTYQEKDKRGGIFDAVFTRGDQSKLLTSRHDFKEKNLKEISDLIKQELTEGKALGLSHTYANVRINHVINLWGADFDSNGNLKAIYVTDSDSNASIGMKKYFVGVNSAGKVAISAKEIEEDNIGAQVLGLFTLSTGQDSWNQTN", 242]
]}
